Molecular target: Proteasome Macropain subunit MB1 (Homo sapiens)
Sequence (P28074 whole entry): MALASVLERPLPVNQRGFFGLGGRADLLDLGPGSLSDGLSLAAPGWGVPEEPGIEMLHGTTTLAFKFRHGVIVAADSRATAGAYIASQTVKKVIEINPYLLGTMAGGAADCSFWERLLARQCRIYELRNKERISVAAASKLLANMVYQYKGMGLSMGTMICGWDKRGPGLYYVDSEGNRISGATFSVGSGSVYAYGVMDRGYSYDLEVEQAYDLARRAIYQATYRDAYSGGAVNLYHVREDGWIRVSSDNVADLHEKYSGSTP
Test: Inhibition of human chymotrypsin-like activity of 20S proteasome using Suc-LLVY-AMC as substrate pre-incubated for 10 mins followed by substrate addition and measured after 1 hr by spectrofluorimetry
Details: read-out: IC50
pIC50: −log10 of the molar value.
Property Name: pIC50

1. Cc1cc(C(=O)N[C@@H](Cc2cscn2)C(=O)N[C@@H](CC(C)C)C(=O)N[C@@H](Cc2ccccc2)C(=O)N[C@@H](CC(C)C)C(=O)[C@@]2(C)CO2)no1 | 7.69
2. CC(C)C[C@H](NC(=O)[C@H](CCc1ccccc1)NC(=O)CN1CCOCC1)C(=O)N[C@@H](Cc1cc2ccccc2s1)C(=O)N[C@@H](CC(C)C)C(=O)[C@@]1(C)CO1 | 7.43
3. Cc1cc(C(=O)N[C@H](C(=O)N[C@@H](CC(C)C)C(=O)N[C@@H](Cc2ccccc2)C(=O)N[C@@H](CC(C)C)C(=O)[C@@]2(C)CO2)C2CC2)no1 | 7.37
4. CC(C)C[C@H](NC(=O)[C@H](Cc1cscn1)NC(=O)c1cc(Cl)ccc1Cl)C(=O)N[C@@H](Cc1ccccc1)C(=O)N[C@@H](CC(C)C)C(=O)[C@@]1(C)CO1 | 7.19
5. CC(C)C[C@H](NC(=O)[C@H](Cc1ccsc1)NC(=O)CN1CCOCC1)C(=O)N[C@@H](Cc1ccccc1)C(=O)N[C@@H](CC(C)C)C(=O)[C@@]1(C)CO1 | 7.35
6. CC[C@H](NC(=O)[C@H](Cc1ccccc1)NC(=O)[C@H](CC(C)C)NC(=O)[C@H](CCc1ccccc1)NC(=O)CN1CCOCC1)C(=O)[C@@]1(C)CO1 | 7.11
7. CC(C)C[C@H](NC(=O)[C@H](Cc1cscn1)NC(=O)CO)C(=O)N[C@@H](Cc1ccccc1)C(=O)N[C@@H](CC(C)C)C(=O)[C@@]1(C)CO1 | 7.28
8. Cc1cc(C(=O)N[C@@H](Cc2ccccn2)C(=O)N[C@@H](CC(C)C)C(=O)N[C@@H](Cc2ccccc2)C(=O)N[C@@H](CC(C)C)C(=O)[C@@]2(C)CO2)no1 | 7.22
9. Cc1cc(C(=O)NCC(=O)N[C@@H](CC(C)C)C(=O)N[C@@H](Cc2ccccc2)C(=O)N[C@@H](CC(C)C)C(=O)[C@@]2(C)CO2)no1 | 7.25
10. COC[C@H](NC(=O)c1cc(C)on1)C(=O)N[C@@H](CC(C)C)C(=O)N[C@@H](Cc1ccccc1)C(=O)N[C@@H](CC(C)C)C(=O)[C@@]1(C)CO1 | 7.51
11. Cc1cc(C(=O)N[C@@H](CCc2ccccc2)C(=O)N[C@H](C(=O)N[C@@H](Cc2ccccc2)C(=O)N[C@@H](CC(C)C)C(=O)[C@@]2(C)CO2)[C@@H](C)O)no1 | 7.32
12. Cc1cc(C(=O)N[C@@H](CCc2ccccc2)C(=O)N[C@H](C(=O)N[C@@H](Cc2ccccc2)C(=O)N[C@@H](CC(C)C)C(=O)[C@@]2(C)CO2)C2CCCCC2)no1 | 7.51
13. Cc1cc(C(=O)N[C@@H](Cc2cc3ccccc3[nH]2)C(=O)N[C@@H](CC(C)C)C(=O)N[C@@H](Cc2ccccc2)C(=O)N[C@@H](CC(C)C)C(=O)[C@@]2(C)CO2)no1 | 7.59
14. CC(C)C[C@H](NC(=O)[C@H](Cc1cscn1)NC(=O)CN1CCOCC1)C(=O)N[C@@H](Cc1ccccc1)C(=O)N[C@@H](CC(C)C)C(=O)[C@@]1(C)CO1 | 7.43
15. Cc1cc(C(=O)N[C@@H](CC(C)C)C(=O)N[C@@H](CC(C)C)C(=O)N[C@@H](Cc2ccccc2)C(=O)N[C@@H](CC(C)C)C(=O)[C@@]2(C)CO2)no1 | 7.38
16. CCCC[C@H](NC(=O)[C@H](CC(C)C)NC(=O)[C@H](CCc1ccccc1)NC(=O)CN1CCOCC1)C(=O)N[C@@H](CC(C)C)C(=O)[C@@]1(C)CO1 | 6.79
17. CC(C)C[C@H](NC(=O)[C@H](Cc1cc2ccccc2s1)NC(=O)CN1CCOCC1)C(=O)N[C@@H](Cc1ccccc1)C(=O)N[C@@H](CC(C)C)C(=O)[C@@]1(C)CO1 | 7.47
18. CC(C)C[C@H](NC(=O)[C@H](CCc1ccccc1)NC(=O)CN1CCOCC1)C(=O)N[C@@H](Cc1ccccc1)C(=O)N[C@@H](CCc1ccccc1)C(=O)[C@@]1(C)CO1 | 6.14
19. CC(C)C[C@H](NC(=O)[C@H](CCc1ccccc1)NC(=O)CN1CCOCC1)C(=O)N[C@@H](Cc1ccccc1)C(=O)N[C@@H](Cc1ccccc1)C(=O)[C@@]1(C)CO1 | 6.86
20. CC(C)C[C@H](NC(=O)[C@H](Cc1cscn1)NC(=O)c1cnccn1)C(=O)N[C@@H](Cc1ccccc1)C(=O)N[C@@H](CC(C)C)C(=O)[C@@]1(C)CO1 | 7.41
21. Cc1cc(C(=O)N[C@@H](CCc2ccccc2)C(=O)N[C@@H](CC2CCCC2)C(=O)N[C@@H](Cc2ccccc2)C(=O)N[C@@H](CC(C)C)C(=O)[C@@]2(C)CO2)no1 | 7.44

This collection of values is drawn from ChEMBL document CHEMBL4393740.
